B1: PTPN9 (parent)
chain: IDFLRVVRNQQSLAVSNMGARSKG

- Variants of: B1
- measurement.notes: protein stability index of a GFP-peptide fusion (GPS, HEK-293T) (PSI 1-6); higher = more stable;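 note: lentivirally expressed fusions sorted by FACS into six bins by GFP to DsRed ratio, PSI derived from sequencing read proportions per bin multiplied by bin number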
- details: c terminus: a fixed tail appended
Item-by-item account of protein stability index
Output: the number by itself.

Consider the worked cases shown below.
1. R8M: 1.46
2. A20Q: 2.25
3. N17Y: 1.93
4. M18L: 2.67
5. V6P: 3.31
6. L4T: 3.33
7. S12C: 1.89
8. V15M: 2.61

Request the reported protein stability index associated with `I1N`
3.83
